pIC50: recorded values
# Test system: MDA-MB-231 complex spheroids, growth inhibition
# Assay protocol: Anticancer human tumor MDA-MB-231 cell line growth inhibition [Asc];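 also: spheroids exposed to compounds for 7 days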
# Assay context: curve of first compound; second compound 0.1 µM
pIC50: −log10 of the molar value.
Quantity measured: pIC50

compound="O=C(c1ccc(F)c(F)c1Nc1ccc(I)cc1F)N1CC(O)([C@@H]2CCCCN2)C1 + CNC(C)C(=O)NC1CN(S(=O)(=O)c2cccc(S(=O)(=O)N3CCC4CCC(C(=O)NC(c5ccccc5)c5ccccc5)N4C(=O)C(NC(=O)C(C)NC)C3)c2)CCC2CCC(C(=O)NC(c3ccccc3)c3ccccc3)N2C1=O" target_system="MDA-MB-231 complex spheroids, growth inhibition" quantity_measured=pIC50 value_observed="> 8.50"
compound="NC1CCC(NC2CC2c2ccccc2)CC1 (configuration not stated) + Cc1c(S(C)(=O)=O)c(-c2cc(F)cc(N3CCN(c4ccc(NS(=O)(=O)c5ccc(NC(CCN6CCC(C(=O)OCCCP(=O)(O)O)CC6)CSc6ccccc6)c(S(=O)(=O)C(F)(F)F)c5)cc4)CC3)c2)c(-c2ccc(Cl)cc2)n1C(C)C" target_system="MDA-MB-231 complex spheroids, growth inhibition" quantity_measured=pIC50 value_observed="< 7.00"

----------
# System: MDA-MB-231 complex spheroids, growth inhibition
# Assay protocol: Anticancer human tumor MDA-MB-231 cell line growth inhibition [Asc];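 also: spheroids exposed to compounds for 7 days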
# Assay context: curve of first compound; second compound 0.1 µM
Quantity measured: IC50

compound="Cc1nc(N2CCC3(CC2)COC(C)C3N)c(CO)nc1Sc1ccnc(N)c1Cl (stereo not drawn) + CNC(C)C(=O)NC1CN(S(=O)(=O)c2cccc(S(=O)(=O)N3CCC4CCC(C(=O)NC(c5ccccc5)c5ccccc5)N4C(=O)C(NC(=O)C(C)NC)C3)c2)CCC2CCC(C(=O)NC(c3ccccc3)c3ccccc3)N2C1=O" target_system="MDA-MB-231 complex spheroids, growth inhibition" value_observed="< 9.49 nM"
compound="Cc1nc(N2CCC3(CC2)COC(C)C3N)c(CO)nc1Sc1ccnc(N)c1Cl (stereo not drawn) + Cc1c(S(C)(=O)=O)c(-c2cc(F)cc(N3CCN(c4ccc(NS(=O)(=O)c5ccc(NC(CCN6CCC(C(=O)OCCCP(=O)(O)O)CC6)CSc6ccccc6)c(S(=O)(=O)C(F)(F)F)c5)cc4)CC3)c2)c(-c2ccc(Cl)cc2)n1C(C)C" target_system="MDA-MB-231 complex spheroids, growth inhibition" value_observed="201 nM"
compound="Cn1ncnc1[C@H]1c2n[nH]c(=O)c3cc(F)cc(c23)N[C@@H]1c1ccc(F)cc1 + Cc1c(S(C)(=O)=O)c(-c2cc(F)cc(N3CCN(c4ccc(NS(=O)(=O)c5ccc(NC(CCN6CCC(C(=O)OCCCP(=O)(O)O)CC6)CSc6ccccc6)c(S(=O)(=O)C(F)(F)F)c5)cc4)CC3)c2)c(-c2ccc(Cl)cc2)n1C(C)C" target_system="MDA-MB-231 complex spheroids, growth inhibition" value_observed="> 100 nM"

----------
In this section, each of the compounds is paired with its reported viability, T/C.
# Tested on: MDA-MB-231 complex spheroids, growth inhibition
# Assay protocol: Anticancer human tumor MDA-MB-231 cell line growth inhibition [Asc];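 also: spheroids exposed to compounds for 7 days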
# Assay context: second compound 0.01 µM; first compound 0.0316 µM; stronger effect = lower value
Quantity measured: viability, T/C (%)

compound="CCN1CCN(Cc2ccc(Nc3ncc(F)c(-c4cc(F)c5nc(C)n(C(C)C)c5c4)n3)nc2)CC1 + CNC(C)C(=O)NC1CN(S(=O)(=O)c2cccc(S(=O)(=O)N3CCC4CCC(C(=O)NC(c5ccccc5)c5ccccc5)N4C(=O)C(NC(=O)C(C)NC)C3)c2)CCC2CCC(C(=O)NC(c3ccccc3)c3ccccc3)N2C1=O" units_text=% value_observed=2.51
compound="O=C(c1cc(Cc2n[nH]c(=O)c3ccccc23)ccc1F)N1CCN(C(=O)C2CC2)CC1 + CNC(C)C(=O)NC1CN(S(=O)(=O)c2cccc(S(=O)(=O)N3CCC4CCC(C(=O)NC(c5ccccc5)c5ccccc5)N4C(=O)C(NC(=O)C(C)NC)C3)c2)CCC2CCC(C(=O)NC(c3ccccc3)c3ccccc3)N2C1=O" units_text=% value_observed=2.12
compound="COc1c(OCCCN2CCOCC2)ccc2c3n(c(=NC(=O)c4cnc(N)nc4)nc12)CCN3 + CNC(C)C(=O)NC1CN(S(=O)(=O)c2cccc(S(=O)(=O)N3CCC4CCC(C(=O)NC(c5ccccc5)c5ccccc5)N4C(=O)C(NC(=O)C(C)NC)C3)c2)CCC2CCC(C(=O)NC(c3ccccc3)c3ccccc3)N2C1=O" units_text=% value_observed=3.39
